# Assay Notes: Pharmacokinetics test in SD rats (iv and po)
# Type: in vivo
# Protocol Conditions: male, SD, rat, in vivo, po, 5 mg/kg
Exercise: state measured AUC(0-inf) for each of the compounds provided.
Give bare numbers, in ng·h/mL.

O=C(O)c1ccc2c(c1)Oc1cnc(OCc3c(-c4c(Cl)cccc4Cl)noc3C3CC3)cc1CC2
1980
O=C(O)c1ccc2c(c1)Oc1ccc(OCc3c(-c4c(Cl)cccc4Cl)noc3C3CC3)cc1S(=O)(=O)C2
3350

Kindly consider the entry below.
Request: Output measured AUC(0-inf) for this item: `CC(C)c1cnn(-c2c(Cl)cccc2Cl)c1COc1ccc2c(n1)CCc1ccc(C(=O)O)cc1O2`
Response: 6240

----------
# Assay Notes: Pharmacokinetics test in SD rats (iv and po)
# Type: in vivo
# Protocol Conditions: male, SD, rat, in vivo, iv, 1 mg/kg
# Experimental: Example 37: Pharmacokinetics Test Experimental animals: six healthy adult male SD rats (purchased from Hunan Slack King of Laboratory Animal Co. Ltd.) were divided into two groups, three rats in each group, and the two grops were given intravenous injection and oral administration respectively. Drug preparation: a quantity of a compound of the present invention was weighed, and 5% DMSO, 10% Kolliphor HS15 and 85% saline (0.9%) were added to give target concentrations of the compound solution. […]
Exercise: state measured AUC(0-t) for each of the compounds provided.
Give bare numbers, in ng·h/mL.

Some entries whose results are on file:
O=C(O)c1ccc2c(c1)Oc1cnc(OCc3c(-c4c(Cl)cccc4Cl)noc3C3CC3)cc1CC2 [Example 4]
877
O=C(O)c1ccc2c(c1)Oc1ccc(OCc3c(-c4c(Cl)cccc4Cl)noc3C3CC3)cc1S(=O)(=O)C2 [Example 5]
926

Kindly consider the entry below.
Request: Output measured AUC(0-t) for this item: CC(C)c1cnn(-c2c(Cl)cccc2Cl)c1COc1ccc2c(n1)CCc1ccc(C(=O)O)cc1O2 [Example 17]
Response: 1840

----------
# Assay Notes: Pharmacokinetics test in SD rats (iv and po)
# Format: in vivo
# Protocol Conditions: male, SD, rat, in vivo, po, 5 mg/kg
Result Type: MRT inf (h)
Give bare numbers, in h.

Some entries whose results are on file:
O=C(O)c1ccc2c(c1)Oc1ccc(OCc3c(-c4c(Cl)cccc4Cl)noc3C3CC3)cc1S(=O)(=O)C2 [Example 5]
8.57
CC(C)c1cnn(-c2c(Cl)cccc2Cl)c1COc1ccc2c(n1)CCc1ccc(C(=O)O)cc1O2 [Example 17]
0.84

Kindly consider the entry below.
Request: Output measured MRT inf for this item: O=C(O)c1ccc2c(c1)Oc1cnc(OCc3c(-c4c(Cl)cccc4Cl)noc3C3CC3)cc1CC2 [Example 4]
Response: 1.37
